Measurement Protocol: Unbound fraction in rat plasma
Format: ADME, cell-free
Measurement Label: fraction unbound

[[record]]
smiles_code = "Cl.O=C(N1CCN2CCC1CC2)n1nc(-n2cc(C(F)(F)F)cn2)c2c1COCC2"
test_value = 0.08

[[record]]
smiles_code = "O=C(N1CCN2CCC1CC2)n1nc(-c2ccc(F)cc2)c2c1COCC2"
test_value = 0.11


* * *

// reported bioavailability per item
Measurement Protocol: Bioavailability in dog
Format: ADME, organism-based, Canis lupus familiaris
Condition Set: in vivo
Measurement Label: bioavailability

[[record]]
smiles_code = "O=C(N1CCN2CCC1CC2)n1nc(-c2ccc(F)cc2)c2c1COCC2"
test_value = "21%"

[[record]]
smiles_code = "Cl.O=C(N1CCN2CCC1CC2)n1nc(-n2cc(C(F)(F)F)cn2)c2c1COCC2"
test_value = "48%"


* * *

System Under Test: mouse BCRP (ABCG2) (Mus musculus, UniProt Q7TMS5)
Sequence (Q7TMS5 whole entry): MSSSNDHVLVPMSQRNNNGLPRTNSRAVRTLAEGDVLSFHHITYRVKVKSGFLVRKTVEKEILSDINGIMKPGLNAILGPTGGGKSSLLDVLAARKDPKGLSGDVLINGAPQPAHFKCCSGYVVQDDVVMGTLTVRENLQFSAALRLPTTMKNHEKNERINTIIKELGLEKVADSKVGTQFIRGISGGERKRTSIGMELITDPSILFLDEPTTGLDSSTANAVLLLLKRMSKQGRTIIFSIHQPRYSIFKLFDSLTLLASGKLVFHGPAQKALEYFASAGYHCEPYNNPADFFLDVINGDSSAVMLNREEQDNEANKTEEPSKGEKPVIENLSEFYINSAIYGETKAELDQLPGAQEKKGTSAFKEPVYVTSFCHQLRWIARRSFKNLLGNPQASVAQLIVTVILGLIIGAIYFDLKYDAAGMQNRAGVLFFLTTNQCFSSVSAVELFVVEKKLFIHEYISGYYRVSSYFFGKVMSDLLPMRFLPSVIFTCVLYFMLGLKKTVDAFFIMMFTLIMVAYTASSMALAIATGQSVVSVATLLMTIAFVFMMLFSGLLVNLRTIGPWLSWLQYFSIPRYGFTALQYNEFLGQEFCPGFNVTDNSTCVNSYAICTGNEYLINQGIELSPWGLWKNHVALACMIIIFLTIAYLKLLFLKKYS
Measurement Protocol: Substrate activity at mouse BCRP assessed as apparent permeability at 1 uM
Type: ADME
Condition Set: not told
Measurement Label: Papp at 1 µM (×10⁻⁶ cm/s)

[[record]]
smiles_code = "Cl.O=C(N1CCN2CCC1CC2)n1nc(-n2cc(C(F)(F)F)cn2)c2c1COCC2"
measurement_label = "Papp at 1 µM"
readout_unit = "×10⁻⁶ cm/s"
test_value = 31

[[record]]
smiles_code = "COc1ccc(-c2nn(C(=O)N3CCN4CCC3CC4)c3c2CCOC3)cc1"
measurement_label = "Papp at 1 µM"
readout_unit = "×10⁻⁶ cm/s"
test_value = 32

[[record]]
smiles_code = "O=C(N1CCN2CCC1CC2)n1nc(-n2cc(C(F)(F)F)cn2)c2c1CCC2"
measurement_label = "Papp at 1 µM"
readout_unit = "×10⁻⁶ cm/s"
test_value = 24

[[record]]
smiles_code = "O=C(N1CCN2CCC1CC2)n1nc(-n2cc(C(F)(F)F)cn2)c2c1CCOC2"
measurement_label = "Papp at 1 µM"
readout_unit = "×10⁻⁶ cm/s"
test_value = 42

[[record]]
smiles_code = "CC1(C)Cc2c(c(-c3ccc(F)cc3)nn2C(=O)N2CCN3CCC2CC3)CO1"
measurement_label = "Papp at 1 µM"
readout_unit = "×10⁻⁶ cm/s"
test_value = 31

[[record]]
smiles_code = "O=C(N1CCN2CCC1CC2)n1nc(-n2cc(C(F)(F)F)cn2)c2c1[C@H]1C[C@H]1C2"
measurement_label = "Papp at 1 µM"
readout_unit = "×10⁻⁶ cm/s"
test_value = 23

[[record]]
smiles_code = "O=C(N1CCN2CCC1CC2)n1nc(-c2ccc(C(F)(F)F)cc2)c2c1COCC2"
measurement_label = "Papp at 1 µM"
readout_unit = "×10⁻⁶ cm/s"
test_value = 33

[[record]]
smiles_code = "O=C(N1CCN2CCC1CC2)n1nc(-c2ccc(F)cc2)c2c1COCC2"
measurement_label = "Papp at 1 µM"
readout_unit = "×10⁻⁶ cm/s"
test_value = 31

[[record]]
smiles_code = "O=C(N1CCN2CCC1CC2)n1nc(-n2cc(Cl)cn2)c2c1COCC2"
measurement_label = "Papp at 1 µM"
readout_unit = "×10⁻⁶ cm/s"
test_value = 32


* * *

Measurement Protocol: Protection against PFFs induced alpha-synuclein aggregation in human iPSC derived neurons assessed as reduction in phosphorylated S129 alpha-synuclein level pretreated for 1 day followed by PFFs stimulation and measured after 14 days by immunocytochemistry analysis
Assay type: functional, cell-based
Condition Set: Neuron
Measurement Label: IC50 (nM)

[[record]]
smiles_code = "Cl.O=C(N1CCN2CCC1CC2)n1nc(-n2cc(C(F)(F)F)cn2)c2c1COCC2"
measurement_label = "IC50"
test_value = 17


* * *

Reported CLint scaled is given for each of the following molecules.
Measurement Protocol: Intrinsic clearance in dog
Type: ADME, Canis lupus familiaris
Measurement Label: CLint scaled (L/h/kg)

[[record]]
smiles_code = "Cl.O=C(N1CCN2CCC1CC2)n1nc(-n2cc(C(F)(F)F)cn2)c2c1COCC2"
measurement_label = "CLint scaled"
test_value = 4.5

[[record]]
smiles_code = "O=C(N1CCN2CCC1CC2)n1nc(-c2ccc(F)cc2)c2c1COCC2"
measurement_label = "CLint scaled"
test_value = 412


* * *

Measurement Protocol: Unbound brain-to-plasma concentration ratio in rat at 5 mg/kg, po after 2 hrs
Type: ADME, organism-based
Condition Set: read-out: K(p,uu,brain)
Measurement Label: Kp uu at 2 h

[[record]]
smiles_code = "Cl.O=C(N1CCN2CCC1CC2)n1nc(-n2cc(C(F)(F)F)cn2)c2c1COCC2"
measurement_label = "Kp uu at 2 h"
test_value = 1.3

[[record]]
smiles_code = "O=C(N1CCN2CCC1CC2)n1nc(-c2ccc(F)cc2)c2c1COCC2"
measurement_label = "Kp uu at 2 h"
test_value = 0.4


* * *

Measurement Protocol: Bioavailability in rat at 5 to 10 mg/kg, po or 0.05 to 2 mg/kg, iv
Format: ADME, organism-based
Condition Set: in vivo, dose 5-10 mg/kg
Measurement Label: bioavailability (%)

[[record]]
smiles_code = "O=C(N1CCN2CCC1CC2)n1nc(-n2cc(C(F)(F)F)cn2)c2c1CCC2"
test_value = 25

[[record]]
smiles_code = "O=C(N1CCN2CCC1CC2)n1nc(-n2cc(C(F)(F)F)cn2)c2c1[C@H]1C[C@H]1C2"
test_value = 67

[[record]]
smiles_code = "O=C(N1CCN2CCC1CC2)n1nc(-c2ccc(F)cc2)c2c1COCC2"
test_value = 73

[[record]]
smiles_code = "Cl.O=C(N1CCN2CCC1CC2)n1nc(-n2cc(C(F)(F)F)cn2)c2c1COCC2"
test_value = 95


* * *

MRT overview
Measurement Protocol: Mean residence time in rat at 5 to 10 mg/kg, po or 0.05 to 2 mg/kg, iv
Assay type: ADME, organism-based
Condition Set: in vivo, dose 5-10 mg/kg
Measurement Label: MRT (h)

[[record]]
smiles_code = "O=C(N1CCN2CCC1CC2)n1nc(-c2ccc(C(F)(F)F)cc2)c2c1COCC2"
test_value = 3.3

[[record]]
smiles_code = "O=C(N1CCN2CCC1CC2)n1nc(-n2cc(Cl)cn2)c2c1COCC2"
test_value = 1.1

[[record]]
smiles_code = "COc1ccc(-c2nn(C(=O)N3CCN4CCC3CC4)c3c2CCOC3)cc1"
test_value = 0.7

[[record]]
smiles_code = "O=C(N1CCN2CCC1CC2)n1nc(-n2cc(C(F)(F)F)cn2)c2c1CCOC2"
test_value = 3.2


* * *

System Under Test: Neuronal acetylcholine receptor subunit alpha-3 (Homo sapiens, UniProt P30926+P32297)
Sequence (P32297 whole entry, one chain of several): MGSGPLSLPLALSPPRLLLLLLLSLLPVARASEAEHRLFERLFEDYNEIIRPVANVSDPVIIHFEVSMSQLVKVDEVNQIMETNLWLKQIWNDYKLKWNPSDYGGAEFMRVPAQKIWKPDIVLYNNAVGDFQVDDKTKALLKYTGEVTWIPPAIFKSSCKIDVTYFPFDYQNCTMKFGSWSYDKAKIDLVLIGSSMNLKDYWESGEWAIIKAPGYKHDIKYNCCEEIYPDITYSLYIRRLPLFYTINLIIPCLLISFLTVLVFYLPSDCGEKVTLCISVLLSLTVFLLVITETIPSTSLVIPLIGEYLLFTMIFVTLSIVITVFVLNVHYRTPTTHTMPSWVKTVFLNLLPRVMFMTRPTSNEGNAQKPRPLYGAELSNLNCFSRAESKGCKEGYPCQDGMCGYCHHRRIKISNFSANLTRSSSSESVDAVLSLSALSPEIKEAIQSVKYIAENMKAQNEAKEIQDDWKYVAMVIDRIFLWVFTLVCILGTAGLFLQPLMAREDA
Measurement Protocol: Inhibition of human alpha3beta4 nAChR
A collection of compounds and their measured IC50
Measurement Label: IC50

[[record]]
smiles_code = "O=C(N1CCN2CCC1CC2)n1nc(-c2ccc(F)cc2)c2c1COCC2"
system_under_test = "Neuronal acetylcholine receptor subunit alpha-3 (Homo sapiens, UniProt P30926+P32297)"
test_value = "2200 nM"

[[record]]
smiles_code = "Cl.O=C(N1CCN2CCC1CC2)n1nc(-n2cc(C(F)(F)F)cn2)c2c1COCC2"
system_under_test = "Neuronal acetylcholine receptor subunit alpha-3 (Homo sapiens, UniProt P30926+P32297)"
test_value = "2200 nM"


* * *

System Under Test: 5-hydroxytryptamine receptor 3A (Homo sapiens, UniProt P46098)
Sequence (P46098 whole entry): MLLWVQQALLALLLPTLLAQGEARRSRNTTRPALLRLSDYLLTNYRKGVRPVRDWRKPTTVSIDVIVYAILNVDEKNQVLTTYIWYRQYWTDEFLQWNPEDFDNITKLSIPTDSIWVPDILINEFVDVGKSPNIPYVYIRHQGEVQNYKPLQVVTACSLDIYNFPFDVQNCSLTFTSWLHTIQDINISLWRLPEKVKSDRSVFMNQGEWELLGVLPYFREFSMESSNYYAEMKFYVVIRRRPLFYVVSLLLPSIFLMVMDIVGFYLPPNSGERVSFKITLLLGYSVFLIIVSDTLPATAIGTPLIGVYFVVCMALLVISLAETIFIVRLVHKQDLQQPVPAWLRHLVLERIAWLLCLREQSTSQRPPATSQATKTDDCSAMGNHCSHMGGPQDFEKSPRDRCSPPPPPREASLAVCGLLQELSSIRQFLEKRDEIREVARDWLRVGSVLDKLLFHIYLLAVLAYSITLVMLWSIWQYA
Measurement Protocol: Antagonist activity at human 5HT3A expressed in HEK293 cells incubated for 1 hr by FLIPR assay
pIC50: −log10 of the molar value.
Recorded pIC50 for the following compounds
Measurement Label: pIC50

[[record]]
smiles_code = "O=C(N1CCN2CCC1CC2)n1nc(-n2cc(C(F)(F)F)cn2)c2c1CCC2"
system_under_test = "5-hydroxytryptamine receptor 3A (Homo sapiens, UniProt P46098)"
test_value = 5.66

[[record]]
smiles_code = "O=C(N1CCN2CCC1CC2)n1nc(-c2ccc(F)cc2)c2c1COCC2"
system_under_test = "5-hydroxytryptamine receptor 3A (Homo sapiens, UniProt P46098)"
test_value = 6.65

[[record]]
smiles_code = "Cl.O=C(N1CCN2CCC1CC2)n1nc(-n2cc(C(F)(F)F)cn2)c2c1COCC2"
system_under_test = "5-hydroxytryptamine receptor 3A (Homo sapiens, UniProt P46098)"
test_value = 5.71

[[record]]
smiles_code = "O=C(N1CCN2CCC1CC2)n1nc(-n2cc(Cl)cn2)c2c1COCC2"
system_under_test = "5-hydroxytryptamine receptor 3A (Homo sapiens, UniProt P46098)"
test_value = 6.23

[[record]]
smiles_code = "O=C(N1CCN2CCC1CC2)n1nc(-n2cc(C(F)(F)F)cn2)c2c1[C@H]1C[C@H]1C2"
system_under_test = "5-hydroxytryptamine receptor 3A (Homo sapiens, UniProt P46098)"
test_value = 5.61

[[record]]
smiles_code = "CC1(C)Cc2c(c(-c3ccc(F)cc3)nn2C(=O)N2CCN3CCC2CC3)CO1"
system_under_test = "5-hydroxytryptamine receptor 3A (Homo sapiens, UniProt P46098)"
test_value = 5.38

[[record]]
smiles_code = "O=C(N1CCN2CCC1CC2)n1nc(-c2ccc(C(F)(F)F)cc2)c2c1COCC2"
system_under_test = "5-hydroxytryptamine receptor 3A (Homo sapiens, UniProt P46098)"
test_value = 5.80

[[record]]
smiles_code = "COc1ccc(-c2nn(C(=O)N3CCN4CCC3CC4)c3c2CCOC3)cc1"
system_under_test = "5-hydroxytryptamine receptor 3A (Homo sapiens, UniProt P46098)"
test_value = 6.47

[[record]]
smiles_code = "O=C(N1CCN2CCC1CC2)n1nc(-n2cc(C(F)(F)F)cn2)c2c1CCOC2"
system_under_test = "5-hydroxytryptamine receptor 3A (Homo sapiens, UniProt P46098)"
test_value = 5.13

